Reported IC50 by item:
TEST TARGET: G12D-mutant human KRAS (amino acid residues 1-188) (Homo sapiens, UniProt P01116, G12D)
Construct: G12D or G12C-mutant human KRAS (amino acid residues 1-188) with FLAG tag; made in house; host or cells: E. coli
Sequence (P01116 1-188 isoform P01116-2 G12D): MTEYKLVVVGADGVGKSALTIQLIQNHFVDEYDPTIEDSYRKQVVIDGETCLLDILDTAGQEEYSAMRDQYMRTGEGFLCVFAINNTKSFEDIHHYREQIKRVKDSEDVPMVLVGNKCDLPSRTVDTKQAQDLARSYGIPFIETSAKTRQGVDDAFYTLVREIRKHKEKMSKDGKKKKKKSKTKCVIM
PROCEDURE TEXT: KRAS Binding Disruption Assay (AlphaScreen; biotinylated KRpep-2d analogue or RAF1-RBD), G12D
CONDITION INFO: KRAS G12D; geometric mean; read-out: KRAS GMean IC50 (uM) MUTATION: G12D
OBSERVED PROPERTY: IC50

>>> assay_result("CN1CCC[C@H]1COc1nc(N2[C@@H]3CC[C@H]2CNC3)c2ccc(-c3cccc(O)c3)cc2n1")
"100 to 1000 µM"
>>> assay_result("Oc1cc(-c2ccc3c(N4[C@@H]5CC[C@H]4CNC5)nc(Oc4cccnc4)nc3c2)c2ccccc2c1")
"10 to 100 µM"
>>> assay_result("CN(C)c1cccc(COc2nc(N3[C@@H]4CC[C@H]3CNC4)c3ccc(-c4cc(O)cc5ccccc45)cc3n2)c1")
"0.0001 to 10 µM"
>>> assay_result("Oc1cccc(F)c1-c1c(Cl)cc2c(N3C[C@H]4CC[C@@H](C3)N4)nc(OCC34CCCN3CCC4)nc2c1F")
"0.0001 to 10 µM"
>>> assay_result("CN1CCC[C@H]1COc1nc(N2C[C@H]3CC[C@@H](C2)N3)c2ccc(-c3cc(O)cc(C(F)(F)F)c3)cc2n1")
"10 to 100 µM"
>>> assay_result("O=C1NC(=O)[C@H](CC(=O)N2[C@@H]3CC[C@H]2CN(c2nc(OCC45CCCN4CCC5)nc4c(F)c(-c5cc(O)cc6ccccc56)ccc24)C3)N1")
"0.0001 to 10 µM"
>>> assay_result("CN1CCC[C@H]1COc1nc(N2C[C@H]3CC[C@@H](C2)N3)c2ccc(-c3ccc4c(c3)NC(=O)CO4)cc2n1")
"100 to 1000 µM"

====

Each entry below lists one item and its recorded IC50 value.
TEST TARGET: G12D-mutant human KRAS (amino acid residues 1-188) (Homo sapiens, UniProt P01116, G12D)
Construct: G12D or G12C-mutant human KRAS (amino acid residues 1-188) with FLAG tag; made in house; host or cells: E. coli
PROCEDURE TEXT: KRAS Binding Disruption Assay (AlphaScreen; biotinylated KRpep-2d analogue or RAF1-RBD), G12D
CONDITION INFO: KRAS G12D; geometric mean; read-out: KRAS GMean IC50 (uM) MUTATION: G12D
OBSERVED PROPERTY: IC50

>>> assay_result("CN1CCC[C@H]1COc1nc(N2[C@@H]3CC[C@H]2CN(C(=O)CNC(N)=O)C3)c2ccc(-c3cc(O)cc4ccccc34)cc2n1")
"10 to 100 µM"
>>> assay_result("CN1CCC[C@H]1COc1nc(N2C[C@H]3CC[C@@H](C2)N3)c2ccc(-c3cnc(N)nc3C(F)(F)F)cc2n1")
"10 to 100 µM"
>>> assay_result("CN1CCC[C@H]1COc1nc(N2C[C@H]3CC[C@@H](C2)N3)c2ccc(-c3ccc4c(c3)NCCO4)cc2n1")
"10 to 100 µM"
>>> assay_result("CN1CCC[C@H]1COc1nc(N2C[C@H]3CC[C@@H](C2)N3)c2ccc(Nc3n[nH]c4ccccc34)cc2n1")
"10 to 100 µM"
>>> assay_result("Cc1ncoc1COc1nc(N2C[C@H]3CC[C@@H](C2)N3)c2ccc(-c3cc(O)cc4ccccc34)c(F)c2n1")
"10 to 100 µM"
>>> assay_result("CCc1cccc2[nH]cc(-c3ccc4c(N5C[C@H]6CC[C@@H](C5)N6)nc(OCC56CCCN5CCC6)nc4c3F)c12")
"0.0001 to 10 µM"
>>> assay_result("Cc1cccc2c(O)nn(-c3ccc4c(N5C[C@H]6CC[C@@H](C5)N6)nc(OC[C@@H]5CCCN5C)nc4c3F)c12")
"10 to 100 µM"
>>> assay_result("CC(=O)NCCN1[C@@H]2CC[C@H]1CN(c1nc(OCC34CCCN3CCC4)nc3c(F)c(-c4cc(O)cc5ccccc45)ccc13)C2")
"0.0001 to 10 µM"
>>> assay_result("Oc1cc(-c2ccc3c(N4C[C@H]5CC[C@@H](C4)N5)nc(OCC4CCC(F)(F)C4)nc3c2F)c2ccccc2c1 (stereo partly drawn)")
"0.0001 to 10 µM"
>>> assay_result("CCNC1CCN(c2nc(N3C[C@H]4CC[C@@H](C3)N4)c3ccc(-c4cc(O)cc5ccccc45)c(F)c3n2)C1 (stereo partly drawn)")
"0.0001 to 10 µM"
>>> assay_result("CCN1CC[C@H](NC(=O)N2[C@@H]3CC[C@H]2CN(c2nc(OCC4CCCN4C)nc4c(F)c(-c5cc(O)cc6ccccc56)ccc24)C3)C1 (stereo partly drawn)")
"0.0001 to 10 µM"
>>> assay_result("CN1CC[C@@H](NC(=O)N2[C@@H]3CC[C@H]2CN(c2nc(OCC45CCCN4CCC5)nc4c(F)c(-c5cc(O)cc6ccccc56)ccc24)C3)C1")
"0.0001 to 10 µM"
>>> assay_result("NC(=O)N1[C@@H]2CC[C@H]1CN(c1nc(OCC34CCCN3CCC4)nc3cc(-c4cc(O)cc5ccccc45)ccc13)C2")
"0.0001 to 10 µM"
>>> assay_result("CN1CCC[C@H]1COc1nc(N2C[C@H]3CC[C@@H](C2)N3C(=O)CC2SC(=O)NC2=O)c2ccc(-c3cc(O)cc4ccccc34)c(F)c2n1 (stereo partly drawn)")
"0.0001 to 10 µM"
>>> assay_result("O=C([C@H]1CCNC1)N1[C@@H]2CC[C@H]1CN(c1nc(OCC34CCCN3CCC4)nc3cc(-c4cc(O)cc5ccccc45)ccc13)C2")
"0.0001 to 10 µM"
>>> assay_result("OCC1(COc2nc(N3C[C@H]4CC[C@@H](C3)N4)c3ccc(-c4cc(O)cc5ccccc45)c(F)c3n2)CCOCC1")
"0.0001 to 10 µM"
>>> assay_result("CN1CCC[C@H]1COc1nc(N2C[C@H]3CC[C@@H](C2)N3)c2cc(F)c(-c3c[nH]c4ccc(C(F)(F)F)cc34)c(F)c2n1")
"0.0001 to 10 µM"
>>> assay_result("N#CCC(=O)N1[C@@H]2CC[C@H]1CN(c1nc(OCC34CCCN3CCC4)nc3c(F)c(-c4cc(O)cc5ccccc45)ccc13)C2")
"0.0001 to 10 µM"
>>> assay_result("Oc1cc(-c2ccc3c(N4C[C@H]5CC[C@@H](C4)N5)nc(OCC4CCC(F)(F)CC4)nc3c2F)c2ccccc2c1")
"0.0001 to 10 µM"
>>> assay_result("Oc1cc(-c2ccc3c(N4C[C@H]5CC[C@@H](C4)N5)nc(OC[C@@]45CCCN4C[C@H](F)C5)nc3c2F)c2c(Cl)cccc2c1")
"0.0001 to 10 µM"
>>> assay_result("CN1CCC[C@H]1COc1nc(N2[C@@H]3CC[C@H]2CN(C(=O)NC2COCC2(C)C)C3)c2ccc(-c3cc(O)cc4ccccc34)cc2n1 (stereo partly drawn)")
"10 to 100 µM"
>>> assay_result("CN1CCC[C@H]1COc1nc(N2C[C@H]3CC[C@@H](C2)N3)c2ccc(-c3cc4ccccc4s3)cc2n1")
"10 to 100 µM"
>>> assay_result("CN1CCC[C@H]1COc1nc(N2C[C@H]3CC[C@@H](C2)N3C(=O)CCn2ccnc2)c2ccc(-c3cc(O)cc4ccccc34)cc2n1")
"0.0001 to 10 µM"
>>> assay_result("Cc1cc2cn[nH]c2cc1-c1ccc2c(N3C[C@H]4CC[C@@H](C3)N4)nc(OCC3CCCN3C)nc2c1 (stereo partly drawn)")
"100 to 1000 µM"
>>> assay_result("NC(=O)CCc1nc(N2[C@@H]3CC[C@H]2CNC3)c2ccc(-c3cc(O)cc4ccccc34)cc2n1")
"0.0001 to 10 µM"
>>> assay_result("Cc1c(-c2c(F)cc3c(N4C[C@H]5CC[C@@H](C4)N5)nc(OC[C@@H]4CCCN4C)nc3c2F)cccc1C(F)(F)F")
"0.0001 to 10 µM"
>>> assay_result("O=C(CCn1ccnc1)N1[C@@H]2CC[C@H]1CN(c1nc(OCC34CCCN3CCC4)nc3c(F)c(-c4cc(O)cc5ccccc45)ccc13)C2")
"0.0001 to 10 µM"

Values from patent US20230081426A1
